Could you please report measured melting point for the items listed next?

State the recorded melting point for every item in the following list.
1. CCOc1cc(C(=O)NC2CC(C)(C)NC(C)(C)C2)ccc1-c1cc2cc(Cl)c(Cl)cc2[nH]1
2. CN(C)C(=O)c1cc(CN2C(=O)C3(COc4cc5c(cc43)OCO5)c3ccccc32)oc1C(F)(F)F (stereo not given)
3. CS(=O)(=O)NCCCc1c[nH]c(-c2ccc(F)cc2)c1-c1ccncc1
4. CC(C)(C)OC(=O)n1cccc1-c1ccc2c(c1)C(C)(C)OC(=O)N2
5. CC(=O)OCC(CCn1cnc2nc(N)ncc21)COC(C)=O

Response:
["253 to 255 °C", "96 to 98 °C", "210 to 214 °C", "172 to 173 °C", "137 to 139 °C"]

* * *

reported.endpoint: melting point

{"compound": "Cc1oc(-c2cc3ccccc3o2)nc1COc1ccc(CCCC2OC(=O)NC2=O)cc1 (stereo unspecified)", "result": "165 to 166 °C"}
{"compound": "Cc1ccc(-c2cncc(OC3SCC(O)C(O)C3O)c2)cc1F (stereo unspecified)", "result": "213 °C"}

State the recorded melting point for every item in the following list.
1. O=C(NCCc1ccc([N+](=O)[O-])cc1)Nc1ccc(Nc2ccccc2)cc1
2. COc1ccc(-c2cc(C(Cl)Cl)nn2-c2ccc(S(N)(=O)=O)cc2)cc1F
3. CCCc1nc(NS(=O)(=O)c2ccc(C(C)(C)C)cc2)c(-c2ccc(C)cc2)c(OCCO)n1

Response:
204 to 205 °C
190 to 193 °C
133 to 134 °C

State the recorded melting point for every item in the following list.
1. COc1nc(C)cc(C(=O)NS(=O)(=O)c2ccccc2[N+](=O)[O-])n1
2. Cc1nc(-c2cccc3nc(N[C@@H]4CCc5ccccc54)ccc23)no1
3. Cc1ccc2nc(-c3ccc(-c4ccccc4)cc3)nc(C(=O)O)c2c1
4. CCOC(=O)c1cc(OC)c2c(C)c(CCN(CC)CC)c(=O)oc2c1Br
5. CCNc1nc(SC)ncc1C(=O)O
6. CCCc1c(OCCCSc2nnc(SCC(=O)O)s2)ccc(C(C)=O)c1O

Response:
1. 212 to 216 °C
2. 105 °C
3. 193 to 196 °C
4. 150 to 151 °C
5. 188 °C
6. 129 to 130 °C

State the recorded melting point for every item in the following list.
1. CCCCOc1ccc2[nH]n(Cc3ccccc3)c(=O)c2c1
2. CCc1cc(Nc2ccc(-c3ccccc3C#N)cc2)n2nccc2n1

Response:
["146 to 147 °C", "247 to 248 °C"]

State the recorded melting point for every item in the following list.
1. CCCc1c[nH]c(-c2ccnc(NC(=O)c3ccccc3)c2)n1
2. CC1(C)OC(=O)C(=Cc2ccc(Br)s2)C1=O
3. CC(C)(C)OC(=O)NC(Cc1ccccc1)CC(O)C(Cc1ccccc1)NC(=O)OCc1cncs1 (stereo unspecified)
4. O=C(COc1ccc(-c2ccccc2)cc1Br)c1ccccc1
5. COC(=O)c1ccc(/C=C/C(=O)NOC2CCCCO2)s1 (stereo unspecified)

Response:
["95 to 97 °C", "173 to 175 °C", "118 to 120 °C", "93 to 95 °C", "177 °C"]

* * *

Could you please report measured melting point for the items listed next?
One number for each entry, in °C.

Below are worked cases with known answers.
{"compound": "CC(=O)Nc1csc(Br)n1", "melting point (°C)": 165}
{"compound": "CCOC(=O)C1=C(C)N(C2CC2)C(C)=C(C(=O)OC)C1c1ccc(C(F)(F)F)cc1 (stereo not given)", "melting point (°C)": 110}
{"compound": "CCCC1(C)CC(C)c2cc(C(C)=O)c(O)c(C)c2O1 (stereo not given)", "melting point (°C)": 73}

Let us examine a further case.
Query: Request the reported melting point associated with CCCCc1ccc2c(=O)c(O)c(-c3cc(O)c(O)c(O)c3)oc2c1
Response: 142
